Ref: patent US9393232B2

Target: Recombinant human BRD3(1-435) (Homo sapiens (Human), UniProt Q15059)
Sequence (Q15059 1-435): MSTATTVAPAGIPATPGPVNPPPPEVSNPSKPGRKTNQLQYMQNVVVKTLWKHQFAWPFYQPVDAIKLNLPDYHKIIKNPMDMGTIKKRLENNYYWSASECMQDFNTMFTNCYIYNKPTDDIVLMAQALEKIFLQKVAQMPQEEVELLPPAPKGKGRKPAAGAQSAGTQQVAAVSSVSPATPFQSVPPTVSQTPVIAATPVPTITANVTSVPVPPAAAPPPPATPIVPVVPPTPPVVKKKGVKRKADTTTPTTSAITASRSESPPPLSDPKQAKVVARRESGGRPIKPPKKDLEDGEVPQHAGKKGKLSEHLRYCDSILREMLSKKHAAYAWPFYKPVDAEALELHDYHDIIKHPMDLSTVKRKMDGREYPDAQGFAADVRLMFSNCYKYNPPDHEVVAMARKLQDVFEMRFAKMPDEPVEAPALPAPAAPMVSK
Assay: BRD3 TR-FRET biochemical IC50 assay
Format: binding
Conditions: TR-FRET, tetra-acetylated histone peptide; read-out: BRD3 IC50
property_measured: log10 IC50 (log10 of the value in nM)

>>> measured_number("Cc1noc(C)c1-c1ccc2c(c1)C(c1ccccc1)(N1CCC[C@H](N)C1)C(=O)N2 (stereo partly drawn)")
0.72
>>> measured_number("Cc1noc(C)c1-c1ccc2c(c1)C(N[C@H](C)CO)(c1ccccc1)C(=O)N2 (single isomer, unassigned) [Compound 2.10a]")
1.36
>>> measured_number("Cc1noc(C)c1-c1ccc2c(c1)C(NCC(C)O)(C1CCCCC1)C(=O)N2 (stereo in doubt)")
1.36
>>> measured_number("Cc1noc(C)c1-c1ccc2c(c1)C(c1ccccc1)(N1CCC[C@H](O)C1)C(=O)N2 (stereo partly drawn)")
1.00
>>> measured_number("Cc1noc(C)c1-c1ccc2c(c1)C(O)(C1CCOCC1)C(=O)N2 (stereo not drawn)")
2.15
>>> measured_number("Cc1noc(C)c1-c1ccc2c(c1)C(O)(C1CCCCC1=O)C(=O)N2 (single isomer, unassigned) [Compound 1.30a]")
1.40

###

Biological target: Recombinant human BRD4(1-477) (Homo sapiens (Human))
Test: BRD4 TR-FRET biochemical IC50 assay
Format: binding
Settings: TR-FRET, tetra-acetylated histone peptide; read-out: BRD4 IC50
Response field label: string, one of Y (IC50 strictly below 100 nM) or N.

>>> class("Cc1noc(C)c1-c1ccc2c(c1)C(OCCO)(c1ccccc1)C(=O)N2 (stereo not drawn)")
"Y"
>>> class("Cc1noc(C)c1-c1ccc2c(c1)C(O)(c1cccc(Cl)c1)C(=O)N2 (stereo not drawn)")
"N"
>>> class("Cc1noc(C)c1-c1ccc2c(c1)C(c1ccccc1)(N1CCNCC1)C(=O)N2 (stereo not drawn)")
"N"
>>> class("Cc1noc(C)c1-c1ccc2c(c1)C(N)(c1ccccc1)C(=O)N2 (single isomer, unassigned) [Compound 2.2a]")
"Y"
>>> class("Cc1noc(C)c1-c1ccc2c(c1)C(c1ccccc1)(N1CCOCC1)C(=O)N2 (stereo not drawn)")
"Y"
>>> class("Cc1noc(C)c1-c1ccc2c(c1)C(c1ccccc1)C(=O)N2 (stereo not drawn)")
"N"

###

Biological target: Recombinant human BRD4(1-477) (Homo sapiens (Human), UniProt O60885)
Experiment: BRD4 TR-FRET biochemical IC50 assay
Format: binding
Conditions: TR-FRET, tetra-acetylated histone peptide; read-out: BRD4 IC50
pIC50: −log10 of the molar value.
# pIC50 >= 7 gives 1, anything below gives -1

>>> class("Cc1noc(C)c1-c1ccc2c(c1)C(N[C@H](CO)C(C)C)(C1CCCCC1)C(=O)N2 (single isomer, unassigned) [Compound 2.19b]")
-1
>>> class("Cc1noc(C)c1-c1ccc2c(c1)C(O)(c1ccc(Cl)cc1)C(=O)N2 (centres unmarked)")
-1
>>> class("Cc1noc(C)c1-c1ccc2c(c1)C(c1ccsc1)(N1CCC[C@H](N)C1)C(=O)N2 (single isomer, unassigned) [Compound 4.7a]")
1
>>> class("Cc1noc(C)c1-c1ccc2c(c1)C(CC(=O)O)(c1ccccc1)C(=O)N2 (centres unmarked)")
-1
>>> class("Cc1noc(C)c1-c1ccc2c(c1)C(O)(c1ccccc1)C(=O)N2 (single isomer, unassigned) [Compound 1.1a]")
1
>>> class("Cc1noc(C)c1-c1ccc2c(c1)C(O)(c1ccccc1)C(=O)N2 (centres unmarked) [Compound 1.1]")
1
